Entry source: ChEMBL document CHEMBL1123591

subject.of.test: UniProtKB P04176
Sequence (whole entry): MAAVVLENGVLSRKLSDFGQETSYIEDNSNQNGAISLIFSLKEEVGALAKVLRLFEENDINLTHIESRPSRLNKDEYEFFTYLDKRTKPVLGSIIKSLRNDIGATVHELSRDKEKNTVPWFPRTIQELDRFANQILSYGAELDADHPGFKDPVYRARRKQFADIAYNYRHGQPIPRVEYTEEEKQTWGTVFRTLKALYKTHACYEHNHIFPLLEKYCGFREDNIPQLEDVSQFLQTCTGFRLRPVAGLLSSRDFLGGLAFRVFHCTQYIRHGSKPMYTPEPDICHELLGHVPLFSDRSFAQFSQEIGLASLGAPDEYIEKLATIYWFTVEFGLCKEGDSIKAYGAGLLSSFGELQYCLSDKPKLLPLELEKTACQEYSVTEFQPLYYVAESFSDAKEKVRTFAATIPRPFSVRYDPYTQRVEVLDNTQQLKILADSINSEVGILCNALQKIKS
assay.remarks: Tested in isolated enzyme assay for its cofactor activity against phenylalanine hydroxylase (iisolated from rat liver) expressed as relative velocity
endpoint: Relative velocity (%)

Example cases with answers are listed next.
>>> df
                                   compound   subject_of_test  numeric_result
0  COCC1CNc2nc(N)nc(O)c2N1 (centres undefined)  UniProtKB P04176             138
1  CCOCC1CNc2nc(N)nc(O)c2N1 (centres undefined)  UniProtKB P04176             155

1: CC1CNc2nc(N)[nH]c(=O)c2N1 (centres undefined)
2: CC(O)C(O)C1CNc2nc(N)nc(O)c2N1 (centres undefined)
Param pair: 1 , 2 . Output: the one whose Relative velocity is numerically greater. Returns: label corresponding to the selected item.
1
(1: 238%, 2: 100%)
